Consider the following compounds; for each one, report its Vd.
# protocol.notes: Volume of distribution at steady state in fasted Sprague-Dawley rat at 0.5 mg/kg, iv and 2 mg/kg, po
# Assay type: ADME, organism-based
# particulars: in vivo, read-out: Vdss

# compound CC(C)N1CCN(c2nc3c(c(Nc4ccc(C(F)(F)F)cc4)n2)CCN(c2ncccc2C(F)(F)F)CC3)CC1 ; its Vd = 5.1 L/kg

# compound CC(C)CN1CCN(c2nc3c(c(Nc4ccc(C(F)(F)F)cc4)n2)CCN(c2ncccc2C(F)(F)F)CC3)CC1 ; its Vd = 0.5 L/kg

# compound FC(F)(F)c1ccc(Nc2nc(N3CCN(C4CC4)CC3)nc3c2CCN(c2ncccc2C(F)(F)F)CC3)cc1 ; its Vd = 1 L/kg
